In this section, each of the molecules is paired with its reported IC50.
tested on: OCI-AML-3 cells; experiment: Killing of AML3 acute myeloid leukemia cells in culture (colony assay); type: cell-based; settings: Homo sapiens, colonies >20 cells scored at 5-6 days, methylcellulose, Table 8, read-out: AML (OCI AML-3) IC 50

Consider the following illustrative entries.
Query: Please provide the recorded IC50 for N#C/C(=C\C=C\c1ccc(O)c(O)c1)S(=O)(=O)c1ccc(Cl)cc1 , tested on OCI-AML-3 cells.
Response: 250 to 500 nM

Query: // repeat for N#C/C(=C\C=C\c1ccc(O)c(O)c1)S(=O)(=O)c1ccccn1 and report
Response: ≥ 250 nM

Query: // repeat for N#C/C(=C\C=C\c1ccc([N+](=O)[O-])cc1)S(=O)(=O)c1ccccc1 and report
Response: > 500 nM

Query: // repeat for COc1cc(/C=C/C=C(\C#N)S(=O)(=O)c2ccccc2)cc(OC)c1O and report
Response: > 500 nM

Query: // repeat for N#C/C(=C\C=C\c1ccc(O)c(O)c1)S(=O)(=O)c1ccccc1 and report
Response: > 500 nM

Query: // repeat for Cc1ccc(S(=O)(=O)/C(C#N)=C/C=C/c2ccc(O)c(O)c2)cc1 and report
Response: 250 to 500 nM

Others:
Query: Please provide the recorded IC50 for CS(=O)(=O)/C(C#N)=C/C=C/c1ccc(O)c(O)c1 , tested on OCI-AML-3 cells.
Response: 250 to 500 nM

* * *

system: NBM (BFU-E); test: Effect upon normal bone marrow differentiation in culture (CFU-GEMM assay, BFU-E); type: cell-based; settings: BFU-E colonies, Table 8, read-out: NBM (BFU-E) IC 50
recorded_endpoint: IC50

Consider the following illustrative entries.
Query: Recorded IC50 of CS(=O)(=O)/C(C#N)=C/C=C/c1ccc(O)c(O)c1 , please.
Response: ≤ 10 µM

Query: // repeat for COc1cc(/C=C/C=C(\C#N)S(=O)(=O)c2ccccc2)cc(OC)c1O and report
Response: ≤ 10 µM

Query: // repeat for N#C/C(=C\C=C\c1ccc(O)c(O)c1)S(=O)(=O)c1ccccn1 and report
Response: ≤ 5 µM

Others:
Query: Recorded IC50 of N#C/C(=C\C=C\c1ccc(O)c(O)c1)S(=O)(=O)c1ccccc1 , please.
Response: 12 µM

Query: // repeat for Cc1ccc(S(=O)(=O)/C(C#N)=C/C=C/c2ccc(O)c(O)c2)cc1 and report
Response: ≤ 10 µM

Query: // repeat for N#C/C(=C\C=C\c1ccc(O)c(O)c1)S(=O)(=O)c1ccc(Cl)cc1 and report
Response: ≥ 5 µM

Query: // repeat for N#C/C(=C\C=C\c1ccc([N+](=O)[O-])cc1)S(=O)(=O)c1ccccc1 and report
Response: > 5 µM
